# Test details: Inhibitor binding assay of SEQ ID NO 3 variants, Inhibitor 2, in Model B detergent
# Type: biochemical
# Measurement context: in Model B relative to SEQ ID NO 3; relative Ki, IF>1.0 = lower Ki
# From the text: Where E is the protease, I is the inhibitor and EI is the protease-inhibitor complex. […] The concentration of enzyme-inhibitor in the detergent solution is then given by: where Etot is the total protease concentration ([Etot]=[E]+[EI]), Itot is the total inhibitor concentration ([Itot]=[I]+[EI]), and Ki is the equilibrium binding constant for the reaction. The measured slopes V are given by: where V0 is the slope without inhibitor added. […]
Metric: inhibitor 2 binding constant improvement factors (IF)
Lab note: write the figure by itself, no unit.

For reference, reported inhibitor 2 binding constant improvement factors (IF) for A145E: protease variant of SEQ ID NO 3 (protein, listed as Bacillus sp.) AVPSTQTPWGIKSIYNDQSITKTTGGSGIKVAVLDTGVYTSHLDLAGSAEQCKDFTQSNPLVDGSCTDRQGHGTHVAGTVLAHGGSNGQGVYGVAPQAKLWAYKVLGDNGSGYSDDIAAAIRHVADEASRTGSKVVINMSLGSSEKDSLIASAVDYAYGKGVLIVAAAGNSGSGSNTIGFPGGLVNAVAVAALENVQQNGTYRVADFSSRGNPATAGDYIIQERDIEVSAPGASVESTWYTGGYNTISGTSMATPHVAGLAAKIWSANTSLSHSQLRTELQNRAKVYDIKGGIGAGTGDDYASGFGYPRVK stands at 1.03

Ref: patent US20170342349A1
